Assay: In Vitro Stability Assay—Mouse Plasma
Assay type: in vitro ADME
Conditions: attachment position L11B; before plasma incubation
*1 amine or outer side, *2 acyl side, *3 side chain or, on linkers, in order; H or OH if unused. Where a SMILES comes first, the peptide text is derived from it. [ ]: non-standard residue; d: D form. The star is where a group is joined. Dolaproine = CO[C@@H]([C@@H]1CCCN1)[C@@H](C)C(=O)O; Dil = CC[C@H](C)[C@H](NC)[C@@H](CC(=O)O)OC; PABC = O=C(OCc1ccc(N[*:1])cc1)[*:2]; Doe = c1ccc(C[C@H](N*)c2nccs2)cc1; Cit = NC(=O)NCCC[C@H](N)C(=O)O; PhAc = O=C(Cc1ccccc1)*; Lac = C[C@H](O)C(=O)O; Aib = CC(C)(N)C(=O)O; X2 = CC1(C(=O)*)COC1
The following molecules are listed with their measured DAR values.

molecule	DAR
CC[C@H](C)[C@@H]([C@@H](CC(=O)N1CCC[C@H]1[C@H](OC)[C@@H](C)C(=O)N[C@@H](Cc1ccccc1)c1nccs1)OC)N(C)C(=O)[C@@H](NC(=O)C(C)(C)NC(=O)OCc1ccc(NC(=O)[C@H](CCCNC(N)=O)NC(=O)[C@@H](NC(=O)[C@H](CCCCN)NC(=O)Cc2ccccc2)C(C)C)cc1)C(C)C [Example 3] (PhAc-KV[Cit][PABC][Aib]V[Dil][Dolaproine]-Doe)	1.66
CC[C@H](C)[C@@H]([C@@H](CC(=O)N1CCC[C@H]1[C@H](OC)[C@@H](C)C(=O)N[C@@H](Cc1ccccc1)c1nccs1)OC)N(C)C(=O)[C@@H](NC(=O)C(C)(C)NC(=O)OCc1ccc(NC(=O)[C@H](CCCNC(N)=O)NC(=O)[C@@H](NC(=O)[C@H](CCCCN)NC(=O)C(C)(C)N)C(C)C)cc1)C(C)C [Example 31] (H-[Aib]KV[Cit][PABC][Aib]V[Dil][Dolaproine]-Doe)	1.77
CC[C@H](C)[C@@H]([C@@H](CC(=O)N1CCC[C@H]1[C@H](OC)[C@@H](C)C(=O)N[C@@H](Cc1ccccc1)c1nccs1)OC)N(C)C(=O)[C@@H](NC(=O)C(C)(C)NC(=O)OCc1ccc(NC(=O)[C@H](CCCNC(N)=O)NC(=O)[C@@H](NC(=O)[C@H](CCCCN)NC(=O)C2(C)COC2)C(C)C)cc1)C(C)C [Example 30] (X2-KV[Cit][PABC][Aib]V[Dil][Dolaproine]-Doe)	1.27
CC[C@H](C)[C@@H]([C@@H](CC(=O)N1CCC[C@H]1[C@H](OC)[C@@H](C)C(=O)N[C@@H](Cc1ccccc1)c1nccs1)OC)N(C)C(=O)[C@@H](NC(=O)C(C)(C)NC(=O)OCc1ccc(NC(=O)[C@H](CCCNC(N)=O)NC(=O)[C@@H](NC(=O)[C@H](CCCCN)NC(=O)[C@@H](N)CO)C(C)C)cc1)C(C)C [Example 38] (H-SKV[Cit][PABC][Aib]V[Dil][Dolaproine]-Doe)	1.47
CC[C@H](C)[C@@H]([C@@H](CC(=O)N1CCC[C@H]1[C@H](OC)[C@@H](C)C(=O)N[C@@H](Cc1ccccc1)c1nccs1)OC)N(C)C(=O)[C@@H](NC(=O)C(C)(C)NC(=O)OCc1ccc(NC(=O)[C@H](CCCNC(N)=O)NC(=O)[C@@H](NC(=O)[C@H](CCCCN)NC(=O)[C@H](C)O)C(C)C)cc1)C(C)C [Example 40] (H-[Lac]KV[Cit][PABC][Aib]V[Dil][Dolaproine]-Doe)	1.87
